# measurementProtocol: recombinant UMI read abundance after kanamycin selection (control-corrected) (log10(CPM+1)); higher = more efficient recombination; extreme values may be limits of the assay; sequences stand for … in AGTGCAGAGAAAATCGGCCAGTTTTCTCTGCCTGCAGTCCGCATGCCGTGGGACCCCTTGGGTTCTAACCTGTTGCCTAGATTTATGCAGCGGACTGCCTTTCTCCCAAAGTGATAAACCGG…AGGTTGGTTTCACT; site = the 11-nt donor
measuredParameter: recombinant UMI read abundance (log10)
Write the value as a bare number.

Record excerpt, results attached:
[
  {
    "sequenceContent": "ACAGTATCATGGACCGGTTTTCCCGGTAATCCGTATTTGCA (site ACCGTATCTTG)",
    "recombinant UMI read abundance (log10)": 1.82
  },
  {
    "sequenceContent": "GGCGACCCATGGACCGGTTTTCCCGGTAATCCGTATTTGTT (site GGCAACCCTAA)",
    "recombinant UMI read abundance (log10)": 0
  },
  {
    "sequenceContent": "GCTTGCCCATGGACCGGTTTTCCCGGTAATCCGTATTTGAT (site CCTTGCCCTAT)",
    "recombinant UMI read abundance (log10)": 0.0733
  },
  {
    "sequenceContent": "CTGTACCCATGGACCGGTTTTCCCGGTAATCCGTATTTGAG (site CTGTACCCTCT)",
    "recombinant UMI read abundance (log10)": 0.00463
  }
]

Lookup: Reported recombinant UMI read abundance (log10), sequence ACCTTCGCATGGACCGGTTTTCCCGGTAATCCGTATTTGGC (site ACCTTCGCTGC) : ____
Found: 1.56

Lookup: Reported recombinant UMI read abundance (log10), sequence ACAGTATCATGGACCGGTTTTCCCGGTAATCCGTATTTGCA (site ACAGCATCTCG) : ____
Found: 0.00554

Lookup: Reported recombinant UMI read abundance (log10), sequence AGAGGATCATGGACCGGTTTTCCCGGTAATCCGTATTTGCA (site ACAGTATCTTG) : ____
Found: 1.59

Lookup: Reported recombinant UMI read abundance (log10), sequence ATAAGATCATGGACCGGTTTTCCCGGTAATCCGTATTTGAA (site ATAAGATCTTT) : ____
Found: 2.8

====

# measurementProtocol: recombinant barcode read abundance after kanamycin selection (control-corrected) (log10(CPM+1)); higher = more efficient recombination; sequences stand for … in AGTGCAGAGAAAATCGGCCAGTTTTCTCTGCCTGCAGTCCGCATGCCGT…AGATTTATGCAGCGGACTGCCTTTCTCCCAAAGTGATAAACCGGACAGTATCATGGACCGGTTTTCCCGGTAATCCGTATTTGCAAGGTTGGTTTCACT; site = the 11-nt target
Please note: class 1 applies when recombinant barcode read abundance (log10) is 0.07 or greater, and class 0 applies otherwise.

[
  {
    "sequenceContent": "GTAAGTCCTTGGGTTCTAACCTGTTGCGA (site GTGAGTCCTCC)",
    "cat": "class 0"
  },
  {
    "sequenceContent": "TAGGATACTTGGGTTCTAACCTGTTGCAC (site TAGGATACTCT)",
    "cat": "class 1"
  },
  {
    "sequenceContent": "GACGAAGCTTGGGTTCTAACCTGTTGCCT (site TCCGAAGCTAG)",
    "cat": "class 0"
  },
  {
    "sequenceContent": "GGTCGCGCTTGGGTTCTAACCTGTTGCCT (site GGTCGAGCTAG)",
    "cat": "class 1"
  }
]

Lookup: Exam item: decide whether the reported recombinant barcode read abundance (log10) for CATCGCACTTGGGTTCTAACCTGTTGCCT (site CTTCGCACTAG) is at least 0.07.
Found: class 1

Lookup: Exam item: decide whether the reported recombinant barcode read abundance (log10) for CCGTAAGCTTGGGTTCTAACCTGTTGCCT (site CCGTAATCTAG) is at least 0.07.
Found: class 0

Lookup: Exam item: decide whether the reported recombinant barcode read abundance (log10) for TGACGTCCTTGGGTTCTAACCTGTTGCGT (site TGACGTCCTAC) is at least 0.07.
Found: class 1

Lookup: Exam item: decide whether the reported recombinant barcode read abundance (log10) for CCAGGACCTTGGGTTCTAACCTGTTGCCT (site CCAGGACCTAG) is at least 0.07.
Found: class 1

====

# recombinant UMI read abundance (log10) per record follows
# measurementProtocol: recombinant UMI read abundance after kanamycin selection (control-corrected) (log10(CPM+1)); higher = more efficient recombination; extreme values may be limits of the assay; sequences stand for … in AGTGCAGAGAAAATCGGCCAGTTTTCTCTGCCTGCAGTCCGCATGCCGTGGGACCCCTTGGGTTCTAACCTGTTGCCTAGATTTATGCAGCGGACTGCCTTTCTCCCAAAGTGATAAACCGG…AGGTTGGTTTCACT; site = the 11-nt donor
Write the value as a bare number.

[
  {
    "sequenceContent": "CCCGTATCATGGACCGGTTTTCCCGGTAATCCGTATTTGTC (site CCCCTATCTGA)",
    "measuredParameter": "recombinant UMI read abundance (log10)",
    "recordedMeasurement": 0.0235
  }
]

Lookup: Reported recombinant UMI read abundance (log10), sequence TTTCACCCATGGACCGGTTTTCCCGGTAATCCGTATTTGGG (site TTTCACCCTCC) : ____
Found: 0.00832

====

# measurementProtocol: recombinant UMI read abundance after kanamycin selection (control-corrected) (log10(CPM+1)); higher = more efficient recombination; extreme values may be limits of the assay; sequences stand for … in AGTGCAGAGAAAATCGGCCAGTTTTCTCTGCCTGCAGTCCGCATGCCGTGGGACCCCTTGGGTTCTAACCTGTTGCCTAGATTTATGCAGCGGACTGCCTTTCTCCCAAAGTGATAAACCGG…AGGTTGGTTTCACT; site = the 11-nt donor
# recombinant UMI read abundance (log10) per record follows

[
  {
    "sequenceContent": "CAAACACCATGGACCGGTTTTCCCGGTAATCCGTATTTGAC (site CAAACACCTGT)",
    "recombinant UMI read abundance (log10)": 0.00914
  },
  {
    "sequenceContent": "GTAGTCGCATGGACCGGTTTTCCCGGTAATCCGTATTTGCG (site GTAGTCGCTAG)",
    "recombinant UMI read abundance (log10)": 1.23
  },
  {
    "sequenceContent": "CACTCCTCATGGACCGGTTTTCCCGGTAATCCGTATTTGAC (site CACTCCTCTGG)",
    "recombinant UMI read abundance (log10)": 1.55
  }
]

Lookup: Reported recombinant UMI read abundance (log10), sequence GATTATCCATGGACCGGTTTTCCCGGTAATCCGTATTTGCT (site GGTTATCCTAG) : ____
Found: 0

Lookup: Reported recombinant UMI read abundance (log10), sequence GGAGCGGCATGGACCGGTTTTCCCGGTAATCCGTATTTGGT (site GGAGTGGCTAC) : ____
Found: 0.101

Lookup: Reported recombinant UMI read abundance (log10), sequence AGGAAGACATGGACCGGTTTTCCCGGTAATCCGTATTTGCG (site AGGAAGACTCG) : ____
Found: 2.32

====

# measurementProtocol: recombinant barcode read abundance after kanamycin selection (control-corrected) (log10(CPM+1)); higher = more efficient recombination; sequences stand for … in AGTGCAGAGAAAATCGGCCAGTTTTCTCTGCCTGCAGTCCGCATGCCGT…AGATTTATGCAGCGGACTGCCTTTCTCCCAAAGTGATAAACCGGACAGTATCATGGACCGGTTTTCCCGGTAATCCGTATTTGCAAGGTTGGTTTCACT; site = the 11-nt target
# recombinant barcode read abundance (log10) per record follows
Write the value as a bare number.

[
  {
    "sequenceContent": "ACCTGACCTTGGGTTCTAACCTGTTGCCT (site ACCTGGCCTAG)",
    "recordedMeasurement": 0.1
  }
]

Lookup: Reported recombinant barcode read abundance (log10), sequence TTGATATCTTGGGTTCTAACCTGTTGCCT (site TTGATATCTAG) : ____
Found: 0.149

Lookup: Reported recombinant barcode read abundance (log10), sequence ATGCTGTCTTGGGTTCTAACCTGTTGCTA (site ATGCTGTCTTA) : ____
Found: 1.52

Lookup: Reported recombinant barcode read abundance (log10), sequence AGACTTCCTTGGGTTCTAACCTGTTGCTT (site AGACGTCCTAA) : ____
Found: 0.0179

====

# measurementProtocol: recombinant UMI read abundance after kanamycin selection (control-corrected) (log10(CPM+1)); higher = more efficient recombination; extreme values may be limits of the assay; sequences stand for … in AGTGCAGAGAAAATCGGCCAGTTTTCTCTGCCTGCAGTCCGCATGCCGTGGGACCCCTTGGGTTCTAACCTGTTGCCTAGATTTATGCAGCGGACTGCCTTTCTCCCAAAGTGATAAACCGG…AGGTTGGTTTCACT; site = the 11-nt donor
Please note: Met applies when recombinant UMI read abundance (log10) is 0.7 or greater, and Not met applies otherwise.

# example entries with known answers
[
  {
    "sequenceContent": "GCTTGCGCATGGACCGGTTTTCCCGGTAATCCGTATTTGAT (site GCTTGCACTAT)",
    "cat": "Met"
  },
  {
    "sequenceContent": "CTACTCACATGGACCGGTTTTCCCGGTAATCCGTATTTGGA (site CTACTTACTTC)",
    "cat": "Not met"
  }
]

Lookup: Exam item: decide whether the reported recombinant UMI read abundance (log10) for GTGGATACATGGACCGGTTTTCCCGGTAATCCGTATTTGTG (site GTGGATACTCA) is at least 0.7.
Found: Met

Lookup: Exam item: decide whether the reported recombinant UMI read abundance (log10) for ATGGTCCCATGGACCGGTTTTCCCGGTAATCCGTATTTGAC (site ATGGTCCCTGT) is at least 0.7.
Found: Met

Lookup: Exam item: decide whether the reported recombinant UMI read abundance (log10) for CAAAATACATGGACCGGTTTTCCCGGTAATCCGTATTTGGC (site CAAAATACTGC) is at least 0.7.
Found: Not met

Lookup: Exam item: decide whether the reported recombinant UMI read abundance (log10) for TCAGTATCATGGACCGGTTTTCCCGGTAATCCGTATTTGCG (site TCAGTATCTCG) is at least 0.7.
Found: Met

Lookup: Exam item: decide whether the reported recombinant UMI read abundance (log10) for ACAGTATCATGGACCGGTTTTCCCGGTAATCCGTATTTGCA (site AAAGTCTCTTG) is at least 0.7.
Found: Not met
